src = ChEMBL document CHEMBL1697781

System: Hepatotoxicity
assayMethodText: FDA HLAED, serum glutamic pyruvic transaminase (SGPT) increase
reportedConditions: human
Entries and their measured SGPT Increase - Index Value follow.
readout: SGPT Increase - Index Value

INSERT INTO measurements (compound, readout, valuereported) VALUES
  ('CCCC(=O)Nc1ccc(OCC(O)CNC(C)C)c(C(C)=O)c1 (centres undefined) [ACEBUTOLOL]', 'SGPT Increase - Index Value', 3.3),
  ('Cn1cnc([N+](=O)[O-])c1Sc1ncnc2nc[nH]c12 [AZATHIOPRINE]', 'SGPT Increase - Index Value', 5.6),
  ('C[C@]12CC[C@@H]3c4ccc(O)cc4CC[C@H]3[C@@H]1CC[C@@H]2OC(=O)CCC1CCCC1 [ESTRADIOL CYPIONATE]', 'SGPT Increase - Index Value', 2.1),
  ('CC(=O)OCC(=O)[C@@]12OC3(CCCC3)O[C@@H]1C[C@H]1[C@@H]3CCC4=CC(=O)C=C[C@]4(C)[C@@]3(F)[C@@H](O)C[C@@]12C [AMCINONIDE]', 'SGPT Increase - Index Value', 0),
  ('CO/N=C(/C(=O)N[C@@H]1C(=O)N2C(C(=O)OC(C)OC(=O)C(C)(C)OC)=C(COC(N)=O)CS[C@H]12)c1ccco1 (some centres undefined) [CEFUROXIME PIVOXETIL]', 'SGPT Increase - Index Value', 0),
  ('Oc1ccc2c(c1)[C@@]13CCCC[C@@]1(O)[C@@H](C2)N(CC1CCC1)CC3 [BUTORPHANOL]', 'SGPT Increase - Index Value', 0),
  ('CC(=O)N(CC(O)CN(C(C)=O)c1c(I)c(C(=O)NCC(O)CO)c(I)c(C(=O)NCC(O)CO)c1I)c1c(I)c(C(=O)NCC(O)CO)c(I)c(C(=O)NCC(O)CO)c1I (centres undefined) [IODIXANOL]', 'SGPT Increase - Index Value', 0),
  ('CCN1CCN(C(=O)N[C@@H](C(=O)N[C@@H]2C(=O)N3C(C(=O)O)=C(CSc4nnnn4C)CS[C@H]23)c2ccc(O)cc2)C(=O)C1=O [CEFOPERAZONE]', 'SGPT Increase - Index Value', 0.2),
  ('CC1(C)O[C@@H]2C[C@H]3[C@@H]4C[C@H](F)C5=CC(=O)C=C[C@]5(C)[C@H]4[C@@H](O)C[C@]3(C)[C@]2(C(=O)CO)O1 [FLUNISOLIDE]', 'SGPT Increase - Index Value', 0),
  ('CC(C)(C)NC(=O)[C@@H]1C[C@@H]2CCCC[C@@H]2CN1C[C@@H](O)[C@H](Cc1ccccc1)NC(=O)[C@H](CC(N)=O)NC(=O)c1ccc2ccccc2n1', 'SGPT Increase - Index Value', 0),
  ('COCCCC/C(=N\OCCN)c1ccc(C(F)(F)F)cc1 [FLUVOXAMINE]', 'SGPT Increase - Index Value', 8.9),
  ('CO[C@@]1(NC(=O)C2SC(=C(C(N)=O)C(=O)O)S2)C(=O)N2C(C(=O)O)=C(CSc3nnnn3C)CS[C@@H]21 (some centres undefined) [CEFOTETAN]', 'SGPT Increase - Index Value', 0),
  ('CC(=O)N1CCN(c2ccc(OCC3COC(Cn4ccnc4)(c4ccc(Cl)cc4Cl)O3)cc2)CC1 (centres undefined) [KETOCONAZOLE]', 'SGPT Increase - Index Value', 10.7);

---

System: Hepatotoxicity
assayMethodText: FDA HLAED, lactate dehydrogenase (LDH) increase
reportedConditions: human
readout: LDH Increase - Number of Reports

INSERT INTO assay_data (molecule, testedtarget, valuereported) VALUES
  ('CO/N=C(/C(=O)N[C@@H]1C(=O)N2C(C(=O)OC(C)OC(=O)C(C)(C)OC)=C(COC(N)=O)CS[C@H]12)c1ccco1 (some centres not stated) [CEFUROXIME PIVOXETIL]', 'Hepatotoxicity', '< 4'),
  ('CC(C)(C)NCC(O)COc1cccc2c1CCC(=O)N2 (configuration not stated) [CARTEOLOL]', 'Hepatotoxicity', '< 4'),
  ('CN1C(=O)OC(C)(C)C1=O [TRIMETHADIONE]', 'Hepatotoxicity', '>= 4'),
  ('CNC(=C[N+](=O)[O-])NCCSCc1csc(CN(C)C)n1 [NIZATIDINE]', 'Hepatotoxicity', '>= 4'),
  ('O=P1(NCCCl)OCCCN1CCCl (configuration not stated) [IFOSFAMIDE]', 'Hepatotoxicity', '< 4'),
  ('CC(=O)[C@]1(O)Cc2c(O)c3c(c(O)c2[C@@H](O[C@H]2C[C@H](N)[C@H](O)[C@H](C)O2)C1)C(=O)c1ccccc1C3=O [IDARUBICIN]', 'Hepatotoxicity', '< 4'),
  ('COc1ccc(-c2ccc3cc(C(=O)O)ccc3c2)cc1C12CC3CC(CC(C3)C1)C2', 'Hepatotoxicity', '< 4'),
  ('CCN1CCN(C(=O)N[C@@H](C(=O)N[C@@H]2C(=O)N3C(C(=O)O)=C(CSc4nnnn4C)CS[C@H]23)c2ccc(O)cc2)C(=O)C1=O [CEFOPERAZONE]', 'Hepatotoxicity', '< 4'),
  ('CC=CC1=C(C(=O)O)N2C(=O)[C@@H](NC(=O)[C@H](N)c3ccc(O)cc3)[C@H]2SC1 [CEFPROZIL]', 'Hepatotoxicity', '>= 4'),
  ('N[C@@H](C(=O)N[C@@H]1C(=O)N2C(C(=O)O)=C(Cl)CS[C@H]12)c1ccccc1 [CEFACLOR ANHYDROUS]', 'Hepatotoxicity', '>= 4'),
  ('FC(F)OC(Cl)C(F)(F)F (configuration not stated) [ISOFLURANE]', 'Hepatotoxicity', '< 4'),
  ('FCOC(C(F)(F)F)C(F)(F)F [SEVOFLURANE]', 'Hepatotoxicity', '< 4'),
  ('CCc1c2c(nc3ccc(OC(=O)N4CCC(N5CCCCC5)CC4)cc13)-c1cc3c(c(=O)n1C2)COC(=O)[C@]3(O)CC [IRINOTECAN]', 'Hepatotoxicity', '< 4'),
  ('CC(C)COCC(CN(Cc1ccccc1)c1ccccc1)N1CCCC1 (configuration not stated) [BEPRIDIL]', 'Hepatotoxicity', '< 4'),
  ('Nc1cc(Cl)c(N=C2NCCN2)c(Cl)c1 [APRACLONIDINE]', 'Hepatotoxicity', '< 4'),
  ('COCCOC(=O)C1=C(C)NC(C)=C(C(=O)OC(C)C)C1c1cccc([N+](=O)[O-])c1 (configuration not stated) [NIMODIPINE]', 'Hepatotoxicity', '>= 4'),
  ('Cc1nnc2n1-c1ccc(Cl)cc1C(c1ccccc1)=NC2 [ALPRAZOLAM]', 'Hepatotoxicity', '>= 4');

---

Tested on: Hepatotoxicity
assayMethodText: FDA HLAED, serum glutamic oxaloacetic transaminase (SGOT) increase
reportedConditions: human
readout: SGOT Increase - Number of Reports

INSERT INTO measurements (compound, valuereported) VALUES
  ('CC(=O)OCC(=O)[C@@]12OC3(CCCC3)O[C@@H]1C[C@H]1[C@@H]3CCC4=CC(=O)C=C[C@]4(C)[C@@]3(F)[C@@H](O)C[C@@]12C [AMCINONIDE]', '< 4'),
  ('CCc1cccc2c3c([nH]c12)C(CC)(CC(=O)O)OCC3 (stereo not drawn) [ETODOLAC]', '>= 4'),
  ('Cc1c(OCC(F)(F)F)ccnc1C[S+]([O-])c1nc2ccccc2[nH]1 (stereo not drawn) [LANSOPRAZOLE]', '>= 4'),
  ('C[C@H](CS)C(=O)N1CCC[C@H]1C(=O)O [CAPTOPRIL]', '>= 4'),
  ('CCCCc1oc2ccccc2c1C(=O)c1cc(I)c(OCCN(CC)CC)c(I)c1 [AMIODARONE]', '< 4'),
  ('CC(C)(C)NCC(O)COc1cccc2c1CCC(=O)N2 (stereo not drawn) [CARTEOLOL]', '< 4'),
  ('CC(C(=O)O)c1cccc(C(=O)c2ccccc2)c1 (stereo not drawn) [KETOPROFEN]', '< 4'),
  ('CC(C)(C)NC(=O)[C@@H]1C[C@@H]2CCCC[C@@H]2CN1C[C@@H](O)[C@H](Cc1ccccc1)NC(=O)[C@H](CC(N)=O)NC(=O)c1ccc2ccccc2n1', '< 4');

---

Entries and their measured SGPT Increase - Index Value follow.
System: Hepatotoxicity
assayMethodText: FDA HLAED, serum glutamic pyruvic transaminase (SGPT) increase
reportedConditions: human
readout: SGPT Increase - Index Value

INSERT INTO assay_data (molecule, valuereported) VALUES
  ('OC(c1cc(C(F)(F)F)nc2c(C(F)(F)F)cccc12)C1CCCCN1 (centres undefined)', 32.5),
  ('Nc1ccn([C@@H]2CS[C@H](CO)O2)c(=O)n1', 9),
  ('CCCCCc1cc(O)c2c(c1)OC(C)(C)[C@@H]1CCC(C)=C[C@@H]21', 0),
  ('Clc1ccc2nsnc2c1NC1=NCCN1', 24.8),
  ('Cc1ccc(C)c(OCCCC(C)(C)C(=O)O)c1', 0),
  ('Cc1ccc(Cl)c(Nc2ccccc2C(=O)O)c1Cl', 0),
  ('CN(Cc1ccc(C(C)(C)C)cc1)Cc1cccc2ccccc12', 0),
  ('CC1(C)S[C@@H]2[C@H](NC(=O)[C@H](NC(=O)N3CCN(S(C)(=O)=O)C3=O)c3ccccc3)C(=O)N2[C@H]1C(=O)O', 0),
  ('N=C(N)NCC1COC2(CCCCC2)O1 (centres undefined)', 0),
  ('COc1cc2nc(N3CCN(C(=O)C4COc5ccccc5O4)CC3)nc(N)c2cc1OC (centres undefined)', 0.5),
  ('CC(=O)O[C@H]1C[C@@H]2CC[C@@H]3[C@H](CC[C@@]4(C)[C@H]3C[C@H]([N+]3(C)CCCCC3)[C@@H]4OC(C)=O)[C@@]2(C)C[C@@H]1N1CCCCC1.[Br-] [VECURONIUM BROMIDE]', 1),
  ('Nc1ccn([C@H]2CC[C@@H](CO)O2)c(=O)n1', 2.9),
  ('CCOC(=O)[C@H](CCc1ccccc1)N[C@@H](C)C(=O)N1Cc2ccccc2C[C@H]1C(=O)O', 1.2),
  ('CCC1(c2ccc(N)cc2)CCC(=O)NC1=O (centres undefined) [AMINOGLUTETHIMIDE]', 0),
  ('COc1ccccc1OCCNCC(O)COc1cccc2[nH]c3ccccc3c12 (centres undefined)', 0),
  ('NCCC(O)(P(=O)(O)O)P(=O)(O)O', 4.1),
  ('CC(C)NCC(O)COc1cccc2[nH]ccc12 (centres undefined)', 2.6),
  ('CC(C)(C)NCC(O)COc1cccc2c1CC(O)C(O)C2 (centres undefined)', 0.7),
  ('CNCCCC12CCC(c3ccccc31)c1ccccc12', 0.3);
